Target: Glutamine synthetase (Lolium perenne)
Sequence (C5IW59 whole entry): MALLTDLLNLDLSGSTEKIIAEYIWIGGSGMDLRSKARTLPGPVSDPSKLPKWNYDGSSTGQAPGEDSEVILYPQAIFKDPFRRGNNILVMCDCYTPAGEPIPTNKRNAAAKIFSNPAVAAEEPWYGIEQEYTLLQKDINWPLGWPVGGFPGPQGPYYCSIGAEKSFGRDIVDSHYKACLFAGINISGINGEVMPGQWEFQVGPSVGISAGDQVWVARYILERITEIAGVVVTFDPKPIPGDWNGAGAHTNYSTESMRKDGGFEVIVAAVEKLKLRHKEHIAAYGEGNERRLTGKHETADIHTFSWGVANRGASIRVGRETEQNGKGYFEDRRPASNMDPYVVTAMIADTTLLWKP
Assay: Inhibition of glutamine synthetase in glufosinate-susceptible Lolium multiflorum C2 (Italian ryegrass) seedlings
Conditions: read-out: I50
parameter_measured: pIC50
Schema: pIC50 number; meaning minus log10 of the concentration expressed in molar units.

q: pIC50 for CP(=O)(O)CCC(N)C(=O)O (stereo unspecified) [GLUFOSINATE] ?
a: 3.86
